# test: SK-BR-3 cell growth inhibitors, pilot screen, 24 h, human (AID 572);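 further: compound exposure lasted between 18 and 24 h rather than exactly 24 h; 100% = carrier-treated control wells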
# experimental setup: SK-BR-3 viability, CellTiter-Glo luminescence, at 10 µM, hits give low values
recorded endpoint: viability (%)

>>> recorded_measurement("COc1cc(C2C(C#N)=C(C)NC3=C2C(=O)CC(C)(C)C3)ccc1O (stereo unspecified)")
100
>>> recorded_measurement("COc1ccc(C/C(O)=C(\\C#N)c2nc3ccccc3s2)cc1")
86
>>> recorded_measurement("Cc1ccc2[nH]c(=O)c(CN(CCCO)S(=O)(=O)c3c(C)ccc4nsnc34)cc2c1")
91
>>> recorded_measurement("COc1ccc(-c2cn3cc(C)ccc3n2)cc1OC")
108
>>> recorded_measurement("O=C(NCC1CCCO1)C1CCC(CNS(=O)(=O)c2ccccc2)CC1 (stereo unspecified)")
101
>>> recorded_measurement("COc1ccc(CN(C(=O)c2ccccc2OC)C2CCS(=O)(=O)C2)cc1 (stereo unspecified)")
95
>>> recorded_measurement("COc1cccc(S(=O)(=O)Nc2ccc(C(=O)N3CCN(C(=O)c4ccco4)CC3)cc2)c1")
85
>>> recorded_measurement("COc1cc(SC)ccc1C(=O)Nc1ccccc1C#N")
75
>>> recorded_measurement("Cc1nc(NC(=O)C23CCC(C)(C(=O)O2)C3(C)C)sc1C (stereo unspecified)")
133
>>> recorded_measurement("COC(=O)c1cc(Oc2ccc(C(=O)OC)cc2N)cc(C(=O)OC)c1")
95
>>> recorded_measurement("CCCCCCc1ccc(-c2ncc(N)cn2)cc1")
97

* * *

# test: 384-well plate pilot, post-Golgi transport modulator project, inhibition of yeast transport mutant growth (AID 636)
# experimental setup: absorbance 615 nm, about 18 h, hits give high values
Activity calls are given as the source filed them. Cut-off read from the data, not from the text of the source: active = inhibition above about 31%; inactive = the rest.
recorded endpoint: inhibition

>>> recorded_measurement("CC(C)Cc1ccc(C(C)C(=O)O)cc1 (stereo unspecified)")
"-1.95% (inactive)"
>>> recorded_measurement("Cn1nc(-c2ccc(C(=O)NCC3CCCO3)cc2)c2ccccc2c1=O (stereo unspecified)")
"-3.12% (inactive)"
>>> recorded_measurement("COCCN(CCOC)C(=O)CCn1c(=O)oc2ccccc21")
"-3.97% (inactive)"
>>> recorded_measurement("NC(=O)C1(N2CCCCC2)CCN(CC(=O)Nc2cc(Cl)ccc2Cl)CC1")
"-1.6% (inactive)"
>>> recorded_measurement("COc1ccc(N2C(=O)C3CCCN3C2c2ccc(F)cc2)cc1Cl (stereo unspecified)")
"0.39% (inactive)"
>>> recorded_measurement("COc1ccc2ccccc2c1CN1CCCC(CO)C1 (stereo unspecified)")
"-1.82% (inactive)"
>>> recorded_measurement("CCn1c(SCc2nc(-c3cccs3)no2)nnc1-c1c[nH]c2ccccc12")
"-5.26% (inactive)"
>>> recorded_measurement("CCN(CC)C(=O)CSC1=C(C#N)C(c2ccco2)C(C(=O)OCCOC)=C(C)N1 (stereo unspecified)")
"-6.16% (inactive)"
>>> recorded_measurement("CCC(C)(C)n1nnnc1C(c1ccccc1OC)N1CCSCC1 (stereo unspecified)")
"-0.78% (inactive)"
>>> recorded_measurement("C=CCSc1nc2c(c(=O)[nH]c(=O)n2C)n1CC")
"-5.54% (inactive)"
>>> recorded_measurement("Cn1nc(CC(=O)Nc2ccc(N3CCN(C(=O)OC(C)(C)C)CC3)cc2)c2ccccc2c1=O")
"-1.82% (inactive)"
